Target: recombinant human Cathepsin K (Homo sapiens (Human), UniProt P43235)
Sequence (P43235 115-329): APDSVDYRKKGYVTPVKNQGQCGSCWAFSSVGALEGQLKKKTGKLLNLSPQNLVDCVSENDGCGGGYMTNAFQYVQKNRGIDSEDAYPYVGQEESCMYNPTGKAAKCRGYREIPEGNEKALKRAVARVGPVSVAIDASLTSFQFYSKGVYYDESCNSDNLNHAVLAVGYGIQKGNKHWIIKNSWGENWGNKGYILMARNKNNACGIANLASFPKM
Assay: Inhibition of human Cathepsin K
Settings: substrate Z-Gly-Pro-Arg-AMC
Friendly reminder: IC50 below 4 µM is rule met, at or above is rule not met.

The examples below pair each entry with its known result.
compound	group-label
N#C[C@H](Cc1ccc(-c2ccc3c(c2)CNC3=O)cc1F)NC(=O)[C@H]1N[C@H]2C[C@@H]1[C@@H]1C[C@@H]12	rule not met
N#C[C@H](Cc1ccc(C2=CCN(C3CCOC3)CC2)cc1F)NC(=O)[C@H]1N[C@@H]2CC[C@H]1C2 (stereo partly shown)	rule not met

Regarding N#C[C@H](Cc1ccc(-c2cccc(S(=O)(=O)C3CC3)c2)cc1F)NC(=O)[C@H]1N[C@@H]2CC[C@H]1C2 , kindly confirm whether its IC50 is beneath 4 µM.
rule not met

Is the reported IC50 for N#C[C@H](Cc1ccc(-c2ccc(C(=O)N3CCn4nccc4C3)s2)cc1F)NC(=O)[C@H]1N[C@@H]2CC[C@H]1C2 strictly below 4 µM?
rule met

Please let me know if CCN1CCC(c2ccc(C[C@@H](C#N)NC(=O)[C@H]3N[C@@H]4CC[C@H]3C4)c(F)c2)CC1 shows IC50 below 4 µM.
rule met

Is 4 µM strictly greater than the compound's reported IC50? compound: N#C[C@H](Cc1ccc(C2=CCN3CCOCC3C2)cc1F)NC(=O)[C@H]1N[C@@H]2CC[C@H]1C2 (stereo partly shown)
rule met

hey, is IC50 for N#C[C@H](Cc1ccc(-c2cnn(CC3CCCO3)c2)cc1F)NC(=O)[C@H]1N[C@@H]2CC[C@H]1C2 (stereo partly shown) lower than 4 µM or not?
rule met

----------
Target: recombinant human DPPI (Cathepsin C) (Homo sapiens (Human))
Sequence (P53634 231-394): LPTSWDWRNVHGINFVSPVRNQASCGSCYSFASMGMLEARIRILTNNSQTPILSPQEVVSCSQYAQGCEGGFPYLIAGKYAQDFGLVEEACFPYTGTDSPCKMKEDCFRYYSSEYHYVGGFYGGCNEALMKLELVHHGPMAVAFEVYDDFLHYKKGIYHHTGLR
Sequence (P53634 395-463): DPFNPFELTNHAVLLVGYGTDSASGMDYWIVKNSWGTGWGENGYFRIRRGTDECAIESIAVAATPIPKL
Sequence (P53634 25-134): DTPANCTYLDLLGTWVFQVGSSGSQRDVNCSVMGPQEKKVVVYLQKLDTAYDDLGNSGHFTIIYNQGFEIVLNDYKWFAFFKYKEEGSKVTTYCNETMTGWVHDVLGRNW
Assay: Inhibition of human DPPI (Cathepsin C)
Settings: substrate Gly-Arg-AMC
recorded-metric: log10 IC50 (log10 of the value in nM)
A difference of one corresponds to tenfold IC50; all values are log10 with IC50 in nM.

Field: example entries. Status: answers known.
compound	recorded-metric	readout-value
C[S+]([O-])c1ccc(-c2ccc(C[C@@H](C#N)NC(=O)[C@H]3N[C@@H]4CC[C@H]3C4)c(F)c2)cc1 (stereo partly shown)	log10 IC50	0.81
N#CC(Cc1ccc2c(c1)c(=O)[nH]c1ccc(Cl)cc12)NC(=O)[C@H]1N[C@@H]2CC[C@H]1C2 (stereo partly shown)	log10 IC50	0.78
CS(=O)(=O)Nc1ccc(-c2ccc(C[C@@H](C#N)NC(=O)[C@H]3N[C@H]4C[C@@H]3[C@@H]3C[C@@H]34)c(F)c2)cc1	log10 IC50	1.33
Cc1ncc(-c2ccc(C[C@@H](C#N)NC(=O)[C@H]3N[C@H]4C[C@@H]3[C@@H]3C[C@@H]34)c(F)c2)s1	log10 IC50	1.26
N#CC(Cc1ccc2[nH]c3ccccc3c2c1)NC(=O)[C@H]1N[C@@H]2CC[C@H]1C2 (stereo partly shown)	log10 IC50	2.79

What value of log10 IC50 has been reported for the following compound? N#C[C@H](Cc1ccc(-c2cnn(S(=O)(=O)c3ccccc3)c2)cc1F)NC(=O)[C@H]1N[C@@H]2CC[C@H]1C2
0.68

Entry CS(=O)(=NC#N)c1ccc(-c2ccc(C[C@@H](C#N)NC(=O)[C@H]3N[C@@H]4CC[C@H]3C4)c(F)c2)cc1 (stereo partly shown) has what log10 IC50?
1.07
